Data provenance is patent US12227520B2.

So I've got a bunch of compounds here, and I need their EC50 values.
System: pLai RLuc reporter virus
Method description: microbe, parasite or virus in culture
Type: cell-based, HIV
Measurement context: Human immunodeficiency virus 1, 72 h, read-out: Antiviral Serum Shift RLuc CCM, CCM (RPMI media, 10% FBS, 1% P/S), 72-h incubation
I'd appreciate it if you included the unit after the number.

# input Under pLai RLuc reporter virus: EC50 value of `O=C(NCc1c(F)cc(F)cc1F)c1cn2c(c(O)c1=O)C(=O)N1C[C@@H]2CCC(F)(F)C1` ?
# output 1.6 nM

# input Lab note: need EC50 with pLai RLuc reporter virus for entry O=C(NCc1ccc(F)cc1F)c1cn2c(c(O)c1=O)C(=O)N1CC2CCc2cc(F)c(F)cc21 (single isomer, unassigned) , please look it up.
# output 0.265 nM

# input Could you share what EC50 was measured for `C[C@H]1[C@@H]2CCCCN1C(=O)c1c(O)c(=O)c(C(=O)NCc3c(F)cc(F)cc3F)cn12` , tested on pLai RLuc reporter virus?
# output 0.41 nM

# input Give pLai RLuc reporter virus EC50 for `C[C@H]1C=CC[C@H]2CN1C(=O)c1c(O)c(=O)c(C(=O)NCc3ccc(F)cc3F)cn12`
# output 0.255 nM

---

Test system: uninfected MT-4 cells
Method description: Cytotoxicity assay in MT-4 cells
Type: cell-based, human
Measurement context: uninfected MT-4 cells, 5 days incubation
Exercise: state measured CC50 for each of the molecules provided.
Entry rule: numbers only, all in µM.

# input Request the reported CC50 associated with O=C(NCc1ccc(F)cc1F)c1cn2c(c(O)c1=O)C(=O)N1CC2CCc2cc(F)ccc21 (single isomer, unassigned)
# output 7.33

# input Entry under review: O=C(NCc1c(F)cc(F)cc1F)c1cn2c(c(O)c1=O)C(=O)N1CCCC(CF)C2C1 (single isomer, unassigned) [Example 194-3] . Reported CC50?
# output 11.5

# input Item under review: `O=C(NCc1ccc(F)cc1F)c1cn2c(c(O)c1=O)C(=O)N1CCc3ccccc3[C@@H]2C1` . Reported CC50?
# output 12.3

# input What value of measured CC50 is listed for `CC[C@]12CCCCN(C1)C(=O)c1c(O)c(=O)c(C(=O)NCc3ccc(F)cc3F)cn12` ?
# output 16.2

# input # query: CC50 of entry CC1CCCN2CC1n1cc(C(=O)NCc3ccc(F)cc3F)c(=O)c(O)c1C2=O (stereo not drawn)
# output 11

# input Which CC50 reading was recorded for the molecule O=C(NCc1c(F)cc(F)cc1F)c1cn2c(c(O)c1=O)C(=O)N1CCCC(CF)C2C1 (single isomer, unassigned) [Example 194-2] ?
# output 10.5

# input Look up CC50 for this molecule: O=C(NCc1c(F)cc(F)cc1F)c1cn2c(c(O)c1=O)C(=O)N1CCCC(CF)C2C1 (single isomer, unassigned) [Example 194-4]
# output 11.3

# input Recorded CC50 for `O=C(NCc1c(F)cc(F)cc1F)c1cn2c(c(O)c1=O)C(=O)N1C[C@@H]2CCC[C@@H]1CF` , please?
# output 10.4

# input Reported CC50, molecule O=C(NCc1ccc(F)cc1F)c1cn2c(c(O)c1=O)C(=O)N1C[C@H](F)CC[C@H]2C1 (single isomer, unassigned) [Example 53-1] : ____
# output 13.2

# input Tell me the measured CC50 of O=C(NCc1ccc(F)cc1F)c1cn2c(c(O)c1=O)C(=O)N1CC2CCc2cc(F)c(F)cc21 (single isomer, unassigned) [Example 50-2] , please.
# output 32.3

# input Please give the measured CC50 for this molecule: `O=C(NCc1ccc(F)cc1F)c1cn2c(c(O)c1=O)C(=O)N1C[C@@H]2CCC[C@@H]1CF`
# output 9.71

# input I'd like to know its CC50. The molecule in question is `CC[C@@]12CCCCN(C1)C(=O)c1c(O)c(=O)c(C(=O)NCc3ccc(F)cc3F)cn12`
# output 10.6

# input Item O=C(NCc1c(F)cc(F)cc1F)c1cn2c(c(O)c1=O)C(=O)N1CC2CCc2ccccc21 (single isomer, unassigned) has what recorded CC50?
# output 12.8
